Please go through the items and note down their TGI.
- System: OVCAR-5 ovarian
- assay-name: NCI tumour cell line growth inhibition, 48 h

Q: Query (molecule): N#CC1=C(N)NC(=O)C(C#N)C12Nc1ccccc1S2 (stereo unspecified) ; field requested: TGI
Result: > 100 µM

Q: Now the same for O=C1c2c(c3c4cc(F)ccc4oc3c3[nH]c4ccccc4c23)C(=O)N1O
Result: > 100 µM

Q: Now the same for O=c1c(NCc2ccccc2)c(C2(c3ccccc3F)SCCCS2)c1=O
Result: > 100 µM

Q: Now the same for CCOC(=O)/C(C(N)=O)=C(\O)C(=O)/C=C(\O)c1ccc(Cl)cc1
Result: 54.3 µM

Q: Now the same for CC(=O)/C=C1\CC(=O)N(C)c2ccccc2N1
Result: > 100 µM

Q: Now the same for Nc1c(C(=O)c2cccc(-c3cccnc3)c2)cnn1-c1ccc(F)cc1
Result: > 25 µM

Q: Now the same for Cn1cc(-c2ccc3c4ccccc4n(C)c3c2)c2ccccc21
Result: > 100 µM

Q: Now the same for COc1c(C(=O)/C(=N/Nc2ccc(C(=O)O)cc2)C(C)=O)c(O)cc2occc12
Result: > 100 µM

Q: Now the same for O=C(COc1cc(=O)oc2ccccc12)c1ccccc1
Result: > 100 µM

Q: Now the same for O=c1cc(NNc2ccccc2)[nH]c(=O)[nH]1
Result: > 100 µM

Q: Now the same for N=c1oc2ccc3ccccc3c2cc1-c1nc2ccccc2c(=O)[nH]1
Result: > 100 µM
